Recorded measurements of GI50, one per entry
# Test system: KM-20L2
# Method notes: NCI tumour cell line growth inhibition, 48 h
Activity calls are given as the source filed them. No stated cut-off is given here; in the data, active = GI50 up to about 1.1 µM and inactive = higher.

Compound	GI50
O=c1cc[nH]c2ccc3nn[nH]c3c12	> 100 µM (inactive)
O=C(O)CCC(NC(=O)c1ccc(Nc2nc3ccc(C(F)(F)F)cc3nc2-c2ccccc2)cc1)C(=O)O (stereo unspecified)	> 100 µM (inactive)
O=C(O)c1ccc(/N=N/c2cc(S(=O)(=O)O)c3cccnc3c2O)cc1	> 100 µM (inactive)
CCCCOC(=O)NC(=O)c1cn(CCSCCOC(=O)NCCCCCCNC(=O)OCCSCCn2cc(C(=O)NC(=O)OCCCC)c(=O)[nH]c2=O)c(=O)[nH]c1=O	> 100 µM (inactive)
CCOC(=O)C1C(c2ccccc2)=C(c2ccccc2)C(c2ccccc2)=C1c1ccccc1	> 100 µM (inactive)
O=C(O)CS [THIOGLYCOLIC ACID]	> 100 µM (inactive)
Cc1ccc(NC(=O)CC(=O)n2nc(C)c(/N=N/c3ccccc3C(=O)O)c2C)cc1	> 100 µM (inactive)
CC(=O)C1=CCC2c3[nH]c4ccccc4c3CCN2C1 (stereo unspecified)	21 µM (inactive)
C[C@@H]1O[C@@H](O[C@H]2[C@H](Oc3cc(O)c4c(=O)cc(-c5ccc(O)cc5)oc4c3)O[C@H](CO)[C@@H](O)[C@@H]2O)[C@H](O)[C@H](O)[C@H]1O [RHOIFOLIN]	> 100 µM (inactive)
Cc1cc2ncn(-c3nc4ccccc4nc3C(C#N)S(C)(=O)=O)c2cc1C (stereo unspecified)	> 100 µM (inactive)
CCCCNC(=O)C1C(=O)N(CCCC)C(=O)/C1=N\N (stereo unspecified)	> 100 µM (inactive)
N#Cc1c(N)oc2cc3c(C#N)c(N)oc3cc12	> 100 µM (inactive)
COc1ccc2[nH]c(=O)cc(C)c2c1[N+](=O)[O-]	> 100 µM (inactive)
Cc1ccc(C(=O)c2nnc(C(=O)c3ccc(C)cc3)nn2)cc1	65.9 µM (inactive)
COc1cc2ccc(CC(=O)O)cc2cc1OC	> 100 µM (inactive)
COC(=O)C(C(=O)C(=O)Nc1nc2ccc(OC)cc2s1)c1cnc2ccccc2n1 (stereo unspecified)	> 100 µM (inactive)

* * *

# Tested on: SF-539
# Method notes: NCI tumour cell line growth inhibition, 48 h
Calls of active or inactive are those of the source. Rule as the data show it: active = GI50 up to about 1.1 µM and inactive = higher.
Outcomes: yes = active, no = inactive

Compound	Class name
COC(=O)C1(O)CC(=O)CCC1c1ccc(OC)cc1 (stereo not drawn)	no
CCOC(=O)C1(C#N)CC1	no
COC(=O)n1c(=O)nc2c3c(ncn21)Oc1c(c(-c2ccccc2)nn1-c1ccccc1)C3c1ccc(Cl)cc1 (stereo not drawn)	no
CCCOc1ccc(-c2nc(-c3ccc(/N=C/c4ccc(N(CCOS(C)(=O)=O)CCOS(C)(=O)=O)cc4C)cc3)cs2)cc1	no
Cc1ccc(-c2cc(-c3ccccc3)nc(N)n2)c(O)c1	no
Cc1cc(S(=O)(=O)Nc2nnc3cnc4ccccc4n23)c(S)cc1Cl	no
COc1cc(/C=N\N(C)C)cc(/C=N/N(C)C)c1O	no
O=C(O)/C(=C/c1c(O)ccc2ccccc12)c1csc(-c2nc(/C(=C\c3c(O)ccc4ccccc34)C(=O)O)cs2)n1	no
COc1ccc(C2SC(C)C(=O)N2c2nc(-c3nc(-c4ccc(Cl)cc4)cs3)cs2)cc1 (stereo not drawn)	no
COC(=O)CNC(=O)C(CSC(=O)OCC1c2ccccc2-c2ccccc21)NC(=O)CCC(NC(=O)OCC1c2ccccc2-c2ccccc21)C(=O)OC (stereo not drawn)	no
COC(=O)c1sc(=S)sc1SCc1cccc(CSc2sc(=S)sc2C(=O)OC)c1	no
N=CCCN(CCC=N)c1ccc(/C=C2\CN(NC(=O)c3ccc(Cl)cc3)C(c3ccccc3)=N2)cc1	no
NC(=S)N/N=C/C1NCCC2CCCCC21 (stereo not drawn)	yes

* * *

# Tested on: 786-0
# Method notes: NCI tumour cell line growth inhibition, 48 h
Active and inactive are the calls of the source. Cut-off read from the data, not from the text of the source: active = GI50 up to about 1.1 µM and inactive = higher.
Outcomes: active, inactive

Compound	Class name
O=C1Oc2ccccc2C(=O)/C1=C/N1C(=O)/C(=C/c2ccc([N+](=O)[O-])cc2)SC1=S	inactive
CCOC(=O)C1C(=O)CC(C)(O)C(C(=O)OCC)C1c1ccc(O)c(OC)c1 (configuration not stated)	inactive
O=C1c2c(F)c(F)c(F)c(F)c2SC2=Nc3cccc4cccc(c34)N12	inactive
CC(C)(C)OCC1NC(=O)[C@@H]2Cc3c([nH]c4ccccc34)C(c3ccccc3)N2C1=O (some centres not stated)	inactive
O=[N+]([O-])c1cccc(CSc2nc(O)c3nc[nH]c3n2)c1	inactive
CC1(C)COC(c2ccccc2-c2ccccc2)=N1	inactive
O=C(O)C(=O)/C=C\c1ccc(Cl)cc1	inactive
COc1ccc(/C=N/c2ccc(-c3nc4ccccc4[nH]3)cc2)cc1OC	inactive
CCN1C(=O)C/C(=C\C(C)=O)Nc2ccccc21	inactive
CN1CCN(CCSC2Cc3cc(Cl)ccc3Sc3ccccc32)CC1 (configuration not stated)	inactive
CCOc1ccccc1NC(=O)C1=C(C)NC(C)=C(C(=O)Nc2ccccc2OCC)C1c1ccc([N+](=O)[O-])cc1	inactive
O=[N+]([O-])c1ccc(/C=N/CC2CCCN3CCCCC23)cc1 (configuration not stated)	inactive
COC(=O)C(Cc1ccccc1)NS(=O)(=O)c1ccc(-c2c3nc(c(-c4ccc(S(=O)(=O)NC(Cc5ccccc5)C(=O)OC)cc4)c4ccc([nH]4)c(-c4ccc(S(=O)(=O)NC(Cc5ccccc5)C(=O)OC)cc4)c4nc(c(-c5ccc(S(=O)(=O)NC(Cc6ccccc6)C(=O)OC)cc5)c5ccc2[nH]5)C=C4)C=C3)cc1 (configuration not stated)	inactive
OC1(C2(c3ccc(Cl)cc3)CCCC2)c2ccccc2C2=NCCN21 (configuration not stated)	inactive
CCC1(N=[N+]=[N-])C(=O)c2ccccc2N(c2ccccc2)C1=O (configuration not stated)	inactive
CCN(CC)CCCC(C)NC(=O)c1ccc2c(c1)C(=O)c1ccccc1C2=O (configuration not stated)	inactive
COC(=O)[C@H]1[C@@H](O)[C@@]2(O)c3c(OC)cc(OC)cc3O[C@@]2(c2ccc3c(c2)OCO3)[C@@H]1c1ccccc1	active
[N-]=[N+]=C1CNC(=O)NC1=O	inactive
Cc1c(C)c2c(c(N)c1C#N)C(=O)N(Nc1ccccc1)C2=O	inactive
C[C@H](CCC(=O)O)[C@H]1CC[C@H]2[C@@H]3C(=O)C[C@@H]4C[C@H](O)CC[C@]4(C)[C@H]3C[C@H](O)[C@]12C	inactive
Oc1ccc(Cl)cc1CN1CCN(Cc2cc(Cl)ccc2O)C1	active
C[C@]12CC[C@@H]3c4cc(C=O)c(OCc5ccccc5)cc4CC[C@H]3[C@@H]1CCC2OCc1ccccc1 (some centres not stated)	inactive
O=C(Nc1ccc2[nH]c(C(=O)N3CC(CCl)c4c3cc([N+](=O)[O-])c3ccccc43)cc2c1)c1cc2ccccc2o1 (configuration not stated)	inactive
Cc1ccc(-c2cc(-c3ccccc3)nc(N)n2)c(O)c1	inactive
CCN(CC)CCC(=O)c1ccc(C)cc1	inactive
O=C(N=C1N(c2ccccc2)C(=O)C(=O)N1c1ccccc1)c1ccccc1	inactive
Cc1cc(S(=O)(=O)Nc2nnc3cnc4ccccc4n23)c(S)cc1Cl	inactive

* * *

Recorded measurements of GI50, one per entry
# System: UACC-62
# Method notes: NCI tumour cell line growth inhibition, 48 h
Active and inactive are the calls of the source. Cut-off read from the data, not from the text of the source: active = GI50 up to about 1.1 µM and inactive = higher.
Result type: GI50

Compound	Reported value
CC1(C)C2CC(O)C1(C)CC2=O (stereo not drawn)	> 100 µM (inactive)
COc1ccc(CC#N)c(OCc2ccccc2)c1	28.8 µM (inactive)
C[C@H](OCc1ccccc1)C(=O)N1CCS(=O)(=O)N2CCC[C@@H]2C1=O	> 100 µM (inactive)
O=C(N[C@H](CO)[C@H](O)c1ccc([N+](=O)[O-])cc1)C(Cl)Cl	> 100 µM (inactive)
CCOC(=O)C(C(=O)OCC)=C1NC2(c3ccccc3Nc3ccccc32)C(C#N)S1 (stereo not drawn)	10.3 µM (inactive)
O=C(O)CCC(NC(=O)c1ccc(Nc2nc3ccc(C(F)(F)F)cc3nc2-c2ccccc2)cc1)C(=O)O (stereo not drawn)	> 100 µM (inactive)
O=C(CC(C(=O)c1ccc(F)cc1)c1ccsc1)c1cccs1 (stereo not drawn)	> 100 µM (inactive)
CCCCCCCCC(C)CCCCCCCCC(=O)OCC(COP(=O)([O-])OCC[N+](C)(C)C)OC(=O)CCCCCCCCC(C)CCCCCCCC (stereo not drawn)	> 100 µM (inactive)

* * *

# Tested on: A549
# Method notes: NCI tumour cell line growth inhibition, 48 h
Calls of active or inactive are those of the source. Rule as the data show it: active = GI50 up to about 1.1 µM and inactive = higher.
Recorded measurements of GI50, one per entry

Molecule	GI50
CC1(C)COC(c2ccccc2-c2ccccc2)=N1	59.2 µM (inactive)
COc1cccc2c(=O)c3c(n(C)c12)OC(C(C)C)C3 (stereo not drawn)	> 100 µM (inactive)
CN(Cc1cnc2c(n1)C(N)=NN(N)N2)c1ccc(C(=O)NC(CCP(=O)(O)O)C(=O)O)cc1 (stereo not drawn)	2.43 µM (inactive)
